target: RAR gamma (Homo sapiens); assay: Transactivation test (apparent Kd by Schild regression versus reference antagonist), luciferase reporter in HeLa cells; conditions: HeLa stable transfectants ERE-βGlob-Luc-SV-Neo and RAR gamma ER-DBD-puro, 18 hours incubation, read-out: RAR gamma Kdapp
Sequence (P13631 185-454 limits assumed): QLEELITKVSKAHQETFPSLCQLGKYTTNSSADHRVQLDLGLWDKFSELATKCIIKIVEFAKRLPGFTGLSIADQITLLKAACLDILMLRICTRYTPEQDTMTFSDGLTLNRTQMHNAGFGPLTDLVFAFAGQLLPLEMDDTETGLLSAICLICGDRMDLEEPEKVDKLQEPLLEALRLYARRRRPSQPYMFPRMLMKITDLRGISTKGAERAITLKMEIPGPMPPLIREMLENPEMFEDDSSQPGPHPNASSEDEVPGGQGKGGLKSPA
readoutType: Kd (nM)
The answer is to be given in nM; state only the numeric part.

compound: CC1(C)CCC(C)(C)c2c(O)cc(C#Cc3ccc(C(=O)O)c(O)c3)cc21 [Compound 1]
unitOfMeasure: nM
Kd: 4

Next up:
Ask: Param item = CC1(C)CCC(C)(C)c2c(OCC3CC3)cc(C#Cc3ccc(C(=O)O)cn3)cc21 [Compound 2] ; retrieve measured Kd.
Reply: 4

----------
target: RAR beta (Homo sapiens, UniProt P10826); assay: Transactivation test (apparent Kd by Schild regression versus reference antagonist), luciferase reporter in HeLa cells; conditions: HeLa stable transfectants ERE-βGlob-Luc-SV-Neo and RAR beta ER-DBD-puro, 18 hours incubation, read-out: RAR beta Kdapp
Sequence (P10826 183-417 limits assumed): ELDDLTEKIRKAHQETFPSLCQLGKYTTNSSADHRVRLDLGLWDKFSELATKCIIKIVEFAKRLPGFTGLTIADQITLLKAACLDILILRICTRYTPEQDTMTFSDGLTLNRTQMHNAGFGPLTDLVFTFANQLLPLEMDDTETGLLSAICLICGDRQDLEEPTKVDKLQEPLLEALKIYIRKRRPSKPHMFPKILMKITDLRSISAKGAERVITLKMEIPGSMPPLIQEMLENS
readoutType: Kd (nM)
The answer is to be given in nM; state only the numeric part.

recordSmiles: CC1(C)CCC(C)(C)c2c(OCC3CC3)cc(C#Cc3ccc(C(=O)O)cn3)cc21
readoutType: Kd
numericReadout: 2

Next up:
Ask: Param item = `CC1(C)CCC(C)(C)c2c(O)cc(C#Cc3ccc(C(=O)O)c(O)c3)cc21` ; retrieve measured Kd.
Reply: 4

----------
target: RAR alpha (Homo sapiens); assay: Transactivation test (apparent Kd by Schild regression versus reference antagonist), luciferase reporter in HeLa cells; assay type: cell-based; conditions: HeLa stable transfectants ERE-βGlob-Luc-SV-Neo and RAR alpha ER-DBD-puro, 18 hours incubation, read-out: RAR alpha Kdapp
Sequence (P10276 183-417 limits assumed): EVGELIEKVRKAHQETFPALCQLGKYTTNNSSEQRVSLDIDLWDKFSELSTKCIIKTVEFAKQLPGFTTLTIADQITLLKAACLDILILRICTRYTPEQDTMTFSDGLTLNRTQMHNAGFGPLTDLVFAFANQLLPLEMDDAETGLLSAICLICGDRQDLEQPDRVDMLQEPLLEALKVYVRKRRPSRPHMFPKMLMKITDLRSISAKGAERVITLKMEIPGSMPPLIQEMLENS
As shown below, each of these molecules has a reported pKd value.
Formally, pKd is defined as -log10 of the concentration c, with c in mol/L.

molecule: CC1(C)CCC(C)(C)c2c(OCC3CC3)cc(C#Cc3ccc(C(=O)O)cn3)cc21 [Compound 2]
numericReadout: 7.52

Ask: Param item = CC1(C)CCC(C)(C)c2c(O)cc(C#Cc3ccc(C(=O)O)c(O)c3)cc21 [Compound 1] ; retrieve measured pKd.
Reply: 6.92
